The values you see were collected from paper PMC6839509.

target: human recombinant cathepsin L (Homo sapiens, UniProt P07711); construct: with a 100 nM final concentration of each active cathepsin for 30 min; made in house; test: Substrate hydrolysis kinetics (kcat, KM, kcat/KM) of ACC-labeled substrates; type: biochemical; settings: cathepsin L 250 nM; pH 5.5, 37 °C; Michaelis–Menten; average of at least triplicate, S.D. below 15%
Sequence (P07711 114-333): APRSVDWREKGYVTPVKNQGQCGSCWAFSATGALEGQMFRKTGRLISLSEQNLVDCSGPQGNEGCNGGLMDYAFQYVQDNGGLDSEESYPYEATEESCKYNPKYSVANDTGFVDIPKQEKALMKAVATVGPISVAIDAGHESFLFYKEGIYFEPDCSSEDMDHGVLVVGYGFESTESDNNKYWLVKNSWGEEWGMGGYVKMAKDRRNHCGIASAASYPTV
Square brackets hold non-standard residues; d marks the D form. * marks the point of attachment. Phe(4-Cl) = N[C@@H](Cc1ccc(Cl)cc1)C(=O)O; ACC = NC(=O)Cc1cc(=O)oc2cc(N*)ccc12; hTyr = N[C@@H](CCc1ccc(O)cc1)C(=O)O; hPhe = N[C@@H](CCc1ccccc1)C(=O)O; Cha = N[C@@H](CC1CCCCC1)C(=O)O; hLeu = CC(C)CC[C@H](N)C(=O)O; hSer = N[C@@H](CCO)C(=O)O; Nle = CCCC[C@H](N)C(=O)O; Nva = CCC[C@H](N)C(=O)O; OBn = c1ccc(CO*)cc1; Bn = c1ccc(C*)cc1
ASSAY_METRIC: kcat/KM Cat L

Check out these entries, answers already filled in.
# kcat/KM Cat L (substance: Ac-[Nva][Cha]E(OBn)R-{ACC} (SMILES CCC[C@H](NC(C)=O)C(=O)N[C@@H](CC1CCCCC1)C(=O)N[C@@H](CCC(=O)OCc1ccccc1)C(=O)N[C@@H](CCCNC(=N)N)C(=O)Nc1ccc2c(CC(N)=O)cc(=O)oc2c1) [ACC-labeled tetrapeptide substrate] ) is 1,140 M^-1s^-1

# kcat/KM Cat L (substance: Ac-[Cha]L[hSer](Bn)R-{ACC} (SMILES CC(=O)N[C@@H](CC1CCCCC1)C(=O)N[C@@H](CC(C)C)C(=O)N[C@@H](CCOCc1ccccc1)C(=O)N[C@@H](CCCNC(=N)N)C(=O)Nc1ccc2c(CC(N)=O)cc(=O)oc2c1) [ACC-labeled tetrapeptide substrate] ) is 1,040 M^-1s^-1

# kcat/KM Cat L (substance: Ac-[hTyr]LE(OBn)R-{ACC} (SMILES CC(=O)N[C@@H](CCc1ccc(O)cc1)C(=O)N[C@@H](CC(C)C)C(=O)N[C@@H](CCC(=O)OCc1ccccc1)C(=O)N[C@@H](CCCNC(=N)N)C(=O)Nc1ccc2c(CC(N)=O)cc(=O)oc2c1) [ACC-labeled tetrapeptide substrate] ) is 1,170 M^-1s^-1

# kcat/KM Cat L (substance: Ac-[Phe(4-Cl)]L[hSer](Bn)R-{ACC} (SMILES CC(=O)N[C@@H](Cc1ccc(Cl)cc1)C(=O)N[C@@H](CC(C)C)C(=O)N[C@@H](CCOCc1ccccc1)C(=O)N[C@@H](CCCNC(=N)N)C(=O)Nc1ccc2c(CC(N)=O)cc(=O)oc2c1) [ACC-labeled tetrapeptide substrate] ) is 1,540 M^-1s^-1

# kcat/KM Cat L (substance: Ac-[Cha]LE(OBn)R-{ACC} (SMILES CC(=O)N[C@@H](CC1CCCCC1)C(=O)N[C@@H](CC(C)C)C(=O)N[C@@H](CCC(=O)OCc1ccccc1)C(=O)N[C@@H](CCCNC(=N)N)C(=O)Nc1ccc2c(CC(N)=O)cc(=O)oc2c1) ) is 744 M⁻¹ s⁻¹

# kcat/KM Cat L (substance: Ac-[hPhe]LE(OBn)R-{ACC} (SMILES CC(=O)N[C@@H](CCc1ccccc1)C(=O)N[C@@H](CC(C)C)C(=O)N[C@@H](CCC(=O)OCc1ccccc1)C(=O)N[C@@H](CCCNC(=N)N)C(=O)Nc1ccc2c(CC(N)=O)cc(=O)oc2c1) [ACC-labeled tetrapeptide substrate] ) is 726 M⁻¹ s⁻¹

Now for a further substance.
# kcat/KM Cat L (substance: Ac-[hLeu][Nle]E(OBn)R-{ACC} (SMILES CCCC[C@H](NC(=O)[C@H](CCC(C)C)NC(C)=O)C(=O)N[C@@H](CCC(=O)OCc1ccccc1)C(=O)N[C@@H](CCCNC(=N)N)C(=O)Nc1ccc2c(CC(N)=O)cc(=O)oc2c1) [ACC-labeled tetrapeptide substrate] ) is 1,090 M^-1s^-1
